Kindly state urine protein to creatinine ratio for each of the entries shown.
test.protocol: Kidney function, urine protein to creatinine ratio in cynomolgus monkeys (Example 45)
Type: in vivo
conditions.used: Day 80
Numbers only.

# annotated cases, reported urine protein to creatinine ratio shown
INSERT INTO measurements (substance, value) VALUES
  ('ISIS 417002: MOE gapmer, nucleobases 1275 to 1318 of SEQ ID NO: 1 (Table 8) (antisense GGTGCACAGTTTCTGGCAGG; MOE gapmer, wing and gap sizes not given here)', 0.18),
  ('ISIS 416850: MOE gapmer, nucleobases 1275 to 1318 of SEQ ID NO: 1 (Table 8) (antisense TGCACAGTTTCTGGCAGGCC; MOE gapmer, wing and gap sizes not given here)', 0.09),
  ('ISIS 416864: MOE gapmer, nucleobases 1275 to 1318 of SEQ ID NO: 1 (Table 8) (antisense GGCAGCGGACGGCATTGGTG; MOE gapmer, wing and gap sizes not given here)', 0.36),
  ('ISIS 416838: MOE gapmer, nucleobases 1018 to 1042 of SEQ ID NO: 1 (Table 6) (antisense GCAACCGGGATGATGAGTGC; MOE gapmer, wing and gap sizes not given here)', 0.13);

With those in mind, consider the next substance.
// field: urine protein to creatinine ratio; key: ISIS 416858: MOE gapmer, nucleobases 1275 to 1318 of SEQ ID NO: 1 (Table 8) (antisense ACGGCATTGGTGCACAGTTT; MOE gapmer, wing and gap sizes not given here) ; value = 0.10
